Study System: Epidermal growth factor receptor (Homo sapiens, UniProt P00533)
Sequence (P00533 whole entry): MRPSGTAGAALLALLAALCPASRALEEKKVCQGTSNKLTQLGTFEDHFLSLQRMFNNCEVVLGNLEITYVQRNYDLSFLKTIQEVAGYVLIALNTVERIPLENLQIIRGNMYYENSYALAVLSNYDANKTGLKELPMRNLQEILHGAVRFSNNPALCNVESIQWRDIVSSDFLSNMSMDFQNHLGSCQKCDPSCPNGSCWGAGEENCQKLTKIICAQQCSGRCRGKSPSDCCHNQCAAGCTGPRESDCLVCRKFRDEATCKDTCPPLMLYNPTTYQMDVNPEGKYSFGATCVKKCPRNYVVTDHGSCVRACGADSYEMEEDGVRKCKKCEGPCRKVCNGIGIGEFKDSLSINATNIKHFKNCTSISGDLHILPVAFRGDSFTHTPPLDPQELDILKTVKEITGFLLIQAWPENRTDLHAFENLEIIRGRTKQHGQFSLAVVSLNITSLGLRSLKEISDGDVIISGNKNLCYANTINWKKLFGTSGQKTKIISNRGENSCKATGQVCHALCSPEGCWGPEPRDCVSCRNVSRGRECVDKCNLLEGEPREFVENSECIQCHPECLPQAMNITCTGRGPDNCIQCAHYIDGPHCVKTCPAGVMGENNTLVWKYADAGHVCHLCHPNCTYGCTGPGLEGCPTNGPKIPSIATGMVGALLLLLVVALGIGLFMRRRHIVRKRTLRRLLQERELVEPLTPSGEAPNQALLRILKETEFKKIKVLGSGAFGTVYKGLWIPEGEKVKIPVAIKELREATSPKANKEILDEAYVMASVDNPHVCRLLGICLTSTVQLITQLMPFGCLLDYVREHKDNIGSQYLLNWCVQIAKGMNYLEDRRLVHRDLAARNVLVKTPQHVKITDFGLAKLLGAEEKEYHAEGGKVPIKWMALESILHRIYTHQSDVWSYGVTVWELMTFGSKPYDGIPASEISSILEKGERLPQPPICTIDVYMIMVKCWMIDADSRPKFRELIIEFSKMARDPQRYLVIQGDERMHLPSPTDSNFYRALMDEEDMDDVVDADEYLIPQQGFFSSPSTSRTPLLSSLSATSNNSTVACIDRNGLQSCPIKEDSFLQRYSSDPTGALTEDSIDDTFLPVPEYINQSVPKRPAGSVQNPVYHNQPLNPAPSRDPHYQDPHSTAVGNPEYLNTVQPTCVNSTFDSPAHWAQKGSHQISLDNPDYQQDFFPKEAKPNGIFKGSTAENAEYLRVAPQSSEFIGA
Property Name: IC50

> print(dat)
                              smiles.record  measured.value
1  O=C(Nc1ccc(Oc2ccnc3[nH]ccc23)c(F)c1)c1cc2cccnc2n(-c2ccc(F)cc2)c1=O          633 nM
